system: DU-145 prostate; assay: NCI tumour cell line growth inhibition, 48 h
attributeMeasured: TGI

INSERT INTO measurements (compound, attributemeasured, measured) VALUES
  ('C=C(Br)COc1ccc2c(C)cc(=O)oc2c1', 'TGI', '> 100 µM'),
  ('COCCn1c2c([n+](Cc3cnccn3)c1C)C(=O)c1ccccc1C2=O', 'TGI', '0.019 µM'),
  ('NC1NCCC(=O)N1CCc1c[nH]c2ccccc12 (stereo unspecified)', 'TGI', '63 µM'),
  ('CC#CC#C/C(=C/C=CC(=O)OC)SC', 'TGI', '> 100 µM'),
  ('COC(=O)Cc1c(C2C(CC(=O)OC)c3ccccc3N2C2OC(CO)C(O)C(O)C2O)[nH]c2ccccc12 (stereo unspecified)', 'TGI', '> 100 µM'),
  ('c1ccc(/C(=N/Nc2ccccn2)c2cccnn2)cc1', 'TGI', '> 100 µM');

Source listed as PubChem BioAssay (NCI).
